# experimentalDetails: in vitro
# conditionDescription: human, hela cells, % viability
Known viability at 28.5 h, 10 µM of a selection of compounds
Give the quantity in %, number only.

1. CC(=O)Nc1ccc(NC(=O)CSC2=C(C#N)C(c3ccco3)C3=C(CCCC3=O)N2)cc1 (stereo not shown) [CBK264462]; 91.8
2. O=C(CCn1c(C(F)(F)F)cc2cccnc21)N1CCCC1 [CBK284962]; 106
3. Cc1ccccc1-n1sc(=O)n(Cc2ccc(F)cc2)c1=O [CBK113605]; 101
4. O=C(CN1C2CCC1CC(O)(c1ccco1)C2)Nc1ccccc1F (stereo not shown) [CBK284109]; 96.7
5. Cc1ccc(CCP(=O)(O)CN2CCOCC2)cn1 [CBK022176]; 109

Data point: Cc1cn([C@@H]2O[C@H](CO)[C@H](O)C2O)c(=O)[nH]c1=O (stereo partly shown) [CBK201265] ; viability at 28.5 h, 10 µM = 101

Data point: C(=C\c1nccnc1OCc1ccccn1)/c1ccccc1 [CBK106874] ; viability at 28.5 h, 10 µM = 105

Data point: COC(=O)c1cn(-c2ccc(Cl)cc2)c(=O)c2ccccc12 [CBK116489] ; viability at 28.5 h, 10 µM = 101

Data point: Cc1nc(-c2ccccc2)ccc1C(=O)Nc1nc(CC(N)=O)cs1 [CBK295195] ; viability at 28.5 h, 10 µM = 96.8

Data point: CN1CCN(c2ccc(S(=O)(=O)Nc3cc(C(=O)O)cc(C(=O)O)c3)cc2[N+](=O)[O-])CC1 [CBK263862] ; viability at 28.5 h, 10 µM = 96.8

Data point: Cc1ccc(CNC(=O)c2ccc3c(c2)NC(=O)C(N2CCCC2)S3)cc1 (stereo not shown) [CBK071788] ; viability at 28.5 h, 10 µM = 84.6

Data point: CCc1nn(CC(=O)N(CC)CC)c(=O)c2cc3sccc3n12 [CBK284054] ; viability at 28.5 h, 10 µM = 77.8

Data point: COc1cc(C=CC(=O)N(C)c2ccccc2C(=O)O)cc(OC)c1OC [CBK296136] ; viability at 28.5 h, 10 µM = 93.1

Data point: COc1nccnc1OC1CCN(CCc2ccc3ccccc3c2)CC1 [CBK084264] ; viability at 28.5 h, 10 µM = 107

Data point: CNS(=O)(=O)c1ccc(NC(=O)Nc2ccc([N+](=O)[O-])cc2OC)cc1 [CBK266939] ; viability at 28.5 h, 10 µM = 93.1

Data point: COc1ccc(C(=O)[C@@H]2CCCN(C(=O)OC(C)(C)C)C2)cc1 [CBK284308] ; viability at 28.5 h, 10 µM = 98.7
